assay: Redox activity of compound assessed as redox index at 100 uM measured by HRP-PR assay; format: physicochemical
Reported Endpoint: Activity_index

Compound	Result Number
NCCc1cn(Cc2cscn2)nn1	0.9
Cc1nnc(N)s1	1
Cc1nc(Br)sc1C(=O)O	1
COC(=O)CC(=O)Nc1ncc(C#N)s1	1
Cc1cnc(N)s1	1
COC(=O)c1cnc(Br)s1	1
O=C(O)c1csc(-c2ccc(F)cc2)n1	0.8
CCOC(=O)c1cnc(Br)s1	1
O=C(O)c1csc(Nc2cccc3ncccc23)n1	1
Nc1nnc(C(F)(F)F)s1	1
N#Cc1cnc(Br)s1	1
Clc1nccs1	1
Nc1nnc(C2CC2)s1	1.1
Brc1nncs1	1
Nc1ccc(S(=O)(=O)Nc2nccs2)cc1 [SULFATHIAZOLE]	1
Cc1csc(N)n1	1
